Assay: qHTS of pediatric cancer cell lines to identify multiple opportunities for drug repurposing: Primary screen for BT-37 cells (AID 1347094); further: potency means the concentration at half of the fitted maximal effect
Conditions: BT-37 viability, CellTiter-Glo luminescence, 48 h; series mostly up to 57.3 µM
Method: Drug repurposing or repositioning has been offered as a strategy for drug development in oncology programs. This approach has special potential for childhood cancers and other rare or orphan diseases, where the expected return on new drug development has been a disincentive to pharmaceuticals. […] We employed a titration-based paradigm (quantitative high-throughput screening or qHTS), where all compounds were tested at multiple concentrations for their effect on cell viability. […]
Inconclusive results are not listed. Activity calls are given as the source filed them. The call rests on the fitted dose curve; in most records, active means well fitted cell-killing curve with a large enough effect; inconclusive means small, poorly fitted or top-dose-only effect; inactive means flat fitted curve, though single readings scatter.
measurement.name: Potency

Examples with answers:
{"compound": "CN1c2cc(O)c(N=NC(N)=O)cc2CC1S(=O)(=O)O (stereo not given)", "Potency": "inactive"}
{"compound": "COc1cc(=C2C=c3ccccc3=N2)[nH]c1=Cc1[nH]c(C)cc1C", "Potency": "7690 nM (active)"}
{"compound": "Nc1cc(C(F)(F)F)c(-c2cc(N3CCOCC3)nc(N3CCOCC3)n2)cn1", "Potency": "1530 nM (active)"}
{"compound": "CC[C@@]1(O)C(=O)OCc2c1cc1n(c2=O)Cc2cc3cc(O)ccc3nc2-1", "Potency": "21.7 nM (active)"}
{"compound": "CCCCc1nc2cc(C=CC(=O)NO)ccc2n1CCN(CC)CC", "Potency": "48.5 nM (active)"}
{"compound": "Nc1nc(-c2nn(Cc3ccccc3F)c3ncccc23)nc(N)c1N1CCOCC1", "Potency": "inactive"}
{"compound": "COCCOc1ccc2c(c1)ncn2-c1ccc2cccc(N3CCC(N)CC3)c2n1", "Potency": "24300 nM (active)"}
{"compound": "CC(C)c1cnn2c(NCc3ccccc3)cc(N[C@@H](CO)[C@H](O)CO)nc12", "Potency": "306 nM (active)"}
{"compound": "OCc1ccc(-c2ccc(-c3ccc(CO)s3)o2)s1", "Potency": "inactive"}
{"compound": "CNC(=O)c1nn(C)c2c1C(C)(C)Cc1cnc(Nc3ccc(N4CCN(C)CC4)cc3)nc1-2", "Potency": "1720 nM (active)"}

Can you share its Potency? I mean this compound: c1ccc2c(CCNc3ccc(Nc4ccncc4)cc3)c[nH]c2c1
4320 nM (active)

Can you share its Potency? I mean this compound: C=CC(=O)Nc1cccc(Oc2nc(Nc3ccc(N4CCN(C)CC4)cc3)ncc2Cl)c1
21700 nM (active)
